B1: TPR 5TU (parent)
chain: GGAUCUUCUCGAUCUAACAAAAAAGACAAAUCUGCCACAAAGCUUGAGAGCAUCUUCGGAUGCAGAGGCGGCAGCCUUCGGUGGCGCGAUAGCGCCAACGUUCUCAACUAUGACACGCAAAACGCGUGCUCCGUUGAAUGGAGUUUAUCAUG

Variants of: B1
Experiment: polymerase ribozyme fitness, log enrichment relative to wild type (log ratio); higher = more active; in vitro selection for triplet polymerase activity
Fewer inactive variants are shown than the library holds.
quantity: polymerase ribozyme fitness (log ratio)

Form field polymerase ribozyme fitness (log ratio), entry U9C C18G A21G A29U C87G : ≤ -4.2
